# assay_text: Metabolic stability in dog liver microsomes assessed as compound remaining after 30 mins
# Assay type: ADME, Canis lupus familiaris
# condition_description: read-out: Stability
measured_endpoint: remaining at 0.5 h

Query: Given the entry `COc1ccc(S(=O)(=O)N(Nc2ccccc2)C(=O)Oc2ccc(OCc3ccccc3)cc2)cc1` , report its measured remaining at 0.5 h.
Reply: 48.5%

----------
# assay_text: Metabolic stability in rat liver microsomes assessed as compound remaining after 30 mins
# Format: ADME
# condition_description: read-out: Stability
measured_endpoint: remaining at 0.5 h (%)
The response must be a number in % with no trailing unit.

Query: Entry `COc1ccc(S(=O)(=O)N(Nc2ccccc2)C(=O)Oc2ccc(OCc3ccccc3)cc2)cc1` has what remaining at 0.5 h?
Reply: 16.3

----------
# measured_on: UniProt Q9JM51
# assay_text: Inhibition of mPGES-1 in mouse RAW264.7 cells assessed as reduction in LPS-induced PGE2 production at 1 uM after 24 hrs relative to control
# Assay type: cell-based
# inhibition values compiled below
Answers without a unit are incomplete; give the number and then its unit.

Query: Recorded inhibition for `COc1ccc(S(=O)(=O)N(Nc2ccccc2)C(=O)Oc2ccccc2OC)cc1` , please?
Reply: 63%

Query: Quick one: `COc1ccc(S(=O)(=O)N(Nc2ccccc2)C(=O)Oc2ccc(OCc3ccccc3)cc2)cc1`
Reply: 84%

Query: Now consider `O=C(Oc1ccc2c(c1)CCC2)N(NS(=O)(=O)c1ccc(Cl)cc1)c1ccccc1` and answer again.
Reply: 73%

***
Query: Would you mind telling me what inhibition value was observed for `COc1ccc(S(=O)(=O)NN(C(=O)Oc2ccccc2OC)c2ccccc2)cc1` ?
Reply: 0%

Query: Moving on to the next molecule: `O=C(Oc1ccc2c(c1)CCC2)N(Nc1ccccc1)S(=O)(=O)c1ccc(Cl)cc1`
Reply: 75%

----------
# measured_on: UniProtKB Q9JM51
# Sequence (Q9JM51 whole entry): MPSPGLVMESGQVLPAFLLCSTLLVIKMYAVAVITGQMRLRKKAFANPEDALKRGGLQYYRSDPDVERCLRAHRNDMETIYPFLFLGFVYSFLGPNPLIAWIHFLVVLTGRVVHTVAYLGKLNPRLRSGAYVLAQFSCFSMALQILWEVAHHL
# assay_text: Inhibition of mPGES-1 in mouse RAW264.7 cells assessed as reduction in LPS-induced PGE2 production after 24 hrs
measured_endpoint: IC50 (nM)
Write the value in nM as a bare number.

Worked examples, 3 molecules total:
Query: Could you share which IC50 value was measured for `O=C(Oc1ccc2c(c1)CCC2)N(Nc1ccccc1)S(=O)(=O)c1ccc(Cl)cc1` ?
Reply: 550

Query: Could you do the same for CS(=O)(=O)Nc1ccc([N+](=O)[O-])cc1OC1CCCCC1 [NS-398] , please?
Reply: 7

Query: Repeat with `O=C(Oc1ccc2c(c1)CCC2)N(NS(=O)(=O)c1ccc(Cl)cc1)c1ccccc1`
Reply: 790

More entries:
Query: What does the record list as IC50 for `COc1ccc(S(=O)(=O)N(Nc2ccccc2)C(=O)Oc2ccc(OCc3ccccc3)cc2)cc1` ?
Reply: 60

Query: Now try `COc1ccc(S(=O)(=O)N(Nc2ccccc2)C(=O)Oc2ccccc2OC)cc1` .
Reply: 690
